molecular target: T1, hRET.mmh (human, UniProt P07949 29-635, biotinylated in the ELISA of Example 4 (biot-hRET.mmh); not in the SPR of Example 3); experiment: SPR Biacore T200, mAb capture, 25 C
T1 construct: also called biot-hRET.mmh; soluble monomeric human RET
Measured pKd by item
# pKd is unitless: minus log10 of the molar concentration; print number only

binder | readout_number
H4H8058P (antibody, human IgG4, V domains shown, human IgG4 Fc (H4H prefix)) VH: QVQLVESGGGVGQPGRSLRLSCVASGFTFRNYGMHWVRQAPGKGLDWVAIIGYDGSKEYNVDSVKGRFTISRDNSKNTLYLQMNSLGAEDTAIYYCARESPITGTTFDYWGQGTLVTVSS VL: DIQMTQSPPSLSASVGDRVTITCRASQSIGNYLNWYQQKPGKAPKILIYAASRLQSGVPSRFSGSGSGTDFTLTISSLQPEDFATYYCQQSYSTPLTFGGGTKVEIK | 8.68

Inquiry: For H4H8083P (antibody, human IgG4, V domains shown, human IgG4 Fc (H4H prefix)) VH: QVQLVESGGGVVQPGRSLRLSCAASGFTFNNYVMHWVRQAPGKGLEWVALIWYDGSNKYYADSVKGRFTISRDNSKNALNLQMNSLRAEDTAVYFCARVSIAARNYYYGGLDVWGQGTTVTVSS VL: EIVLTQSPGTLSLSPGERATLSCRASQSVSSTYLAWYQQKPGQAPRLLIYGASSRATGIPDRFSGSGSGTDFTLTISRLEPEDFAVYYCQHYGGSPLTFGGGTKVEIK , what is its reported pKd?
Reply text: 8.60

Inquiry: For H4H8060P (antibody, human IgG4, V domains shown, human IgG4 Fc (H4H prefix)) VH: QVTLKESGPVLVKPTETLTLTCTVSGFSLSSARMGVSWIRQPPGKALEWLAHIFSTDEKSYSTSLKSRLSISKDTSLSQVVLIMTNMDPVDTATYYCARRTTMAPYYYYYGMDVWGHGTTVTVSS VL: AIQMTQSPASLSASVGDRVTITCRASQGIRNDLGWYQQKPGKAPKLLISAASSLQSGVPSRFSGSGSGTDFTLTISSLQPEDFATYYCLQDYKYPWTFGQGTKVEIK , what is its reported pKd?
Reply text: 9.39
